Test system: herpes simplex virus, type 1 (strain HF)
protocol-text: Antiviral activity (virus rating); […]
Format: cell-based
setup-conditions: strain HF, H.Ep. 2 cells; VR 0.5-0.9 marginal to moderate, VR >= 1 definite activity
Label not satisfied if Virus Rating (VR), Herpes Simplex Type 1 falls below 2; label satisfied in every other case.

| compound | category |
| --- | --- |
| Nc1nc(Cl)c2nnn([C@@H]3C[C@H](CO)[C@@H](O)[C@H]3O)c2n1 (relative stereo) [Formula III, X = Cl] | not satisfied |
| CNc1nc(N)nc2c1ncn2[C@@H]1C[C@H](CO)[C@@H](O)[C@H]1O (relative stereo) [Example 3] | not satisfied |
| Nc1nc(N)c2ncn([C@@H]3C[C@H](CO)[C@@H](O)[C@H]3O)c2n1 (relative stereo) [Example 2] | satisfied |
| Nc1nc(N)c2nnn([C@@H]3C[C@H](CO)[C@@H](O)[C@H]3O)c2n1 (relative stereo) [Example 6] | not satisfied |

Kindly determine if Virus Rating (VR), Herpes Simplex Type 1 recorded for Nc1nc(Cl)c2ncn([C@@H]3C[C@H](CO)[C@@H](O)[C@H]3O)c2n1 (relative stereo) [Example 1] is above or exactly 2.
not satisfied

Reference source: patent US4728736A
